tested-target: human HDAC6 (hHDAC6) (Homo sapiens, UniProt Q9UBN7)
Sequence (Q9UBN7 1-1215): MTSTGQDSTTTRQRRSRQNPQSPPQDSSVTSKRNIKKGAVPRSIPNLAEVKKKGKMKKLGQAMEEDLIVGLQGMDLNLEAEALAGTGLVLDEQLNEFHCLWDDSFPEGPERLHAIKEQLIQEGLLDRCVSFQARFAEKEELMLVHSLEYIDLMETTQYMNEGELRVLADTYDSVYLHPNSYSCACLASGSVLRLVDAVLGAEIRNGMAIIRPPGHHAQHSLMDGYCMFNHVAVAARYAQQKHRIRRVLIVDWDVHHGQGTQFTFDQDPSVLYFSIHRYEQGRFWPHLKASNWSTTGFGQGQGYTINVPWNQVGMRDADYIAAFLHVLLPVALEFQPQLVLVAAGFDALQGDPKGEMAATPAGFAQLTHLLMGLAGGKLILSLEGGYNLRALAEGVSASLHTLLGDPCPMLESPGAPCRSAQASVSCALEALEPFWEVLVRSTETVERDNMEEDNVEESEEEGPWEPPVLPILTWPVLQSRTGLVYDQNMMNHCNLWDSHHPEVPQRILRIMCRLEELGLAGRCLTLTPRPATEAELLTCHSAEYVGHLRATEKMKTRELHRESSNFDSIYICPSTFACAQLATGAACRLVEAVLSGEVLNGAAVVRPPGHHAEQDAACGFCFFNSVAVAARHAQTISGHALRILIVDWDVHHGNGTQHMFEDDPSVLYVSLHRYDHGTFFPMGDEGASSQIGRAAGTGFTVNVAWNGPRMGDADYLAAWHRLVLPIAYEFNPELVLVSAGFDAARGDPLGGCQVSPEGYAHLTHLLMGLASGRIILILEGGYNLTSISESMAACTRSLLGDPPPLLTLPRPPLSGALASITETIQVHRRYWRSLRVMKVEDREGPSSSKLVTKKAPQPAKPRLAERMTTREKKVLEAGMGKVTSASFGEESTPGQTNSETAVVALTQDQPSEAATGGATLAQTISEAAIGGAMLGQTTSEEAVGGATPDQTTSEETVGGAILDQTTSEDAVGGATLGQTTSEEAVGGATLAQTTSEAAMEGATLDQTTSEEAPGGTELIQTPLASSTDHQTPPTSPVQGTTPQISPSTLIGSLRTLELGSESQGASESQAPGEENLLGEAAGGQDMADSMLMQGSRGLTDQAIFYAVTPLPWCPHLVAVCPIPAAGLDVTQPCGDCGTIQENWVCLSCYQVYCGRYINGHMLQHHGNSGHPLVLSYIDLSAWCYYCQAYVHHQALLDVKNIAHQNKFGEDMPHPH
Entries and their pIC50
Expect pIC50 as a plain number equal to -log10 of the molar concentration.

Examples from the recorded data:
CN(C)c1ccc(C(=O)N(Cc2ccc(C(=O)NO)cc2)C(C(=O)NC2CCCCC2)c2ccccc2)cc1 (racemic)    7.19
CNC(=O)CN(Cc1ccc(C(=O)NO)cc1)C(=O)c1ccccc1C    7.49
CC(C)c1ccc(C(=O)N(CC(=O)NCc2ccccc2)Cc2ccc(C(=O)NO)cc2)cc1    7.29
CN(C)c1ccc(C(=O)N(Cc2ccc(C(=O)NO)cc2)C(C)(C)C(=O)NC2CCCCC2)cc1    7.05
CNC(=O)CN(Cc1ccc(C(=O)NO)cc1)C(=O)c1cc(C)cc(C)c1    7.36

The recorded pIC50 for `CC(C)(C)c1ccc(C(=O)N(CC(=O)NCc2ccccc2)Cc2ccc(C(=O)NO)cc2)cc1` is 7.15
